system_name: T1, RBFOX1 RRM RbFoxmut (Fox-RRM*) (Homo sapiens, UniProt Q9NWB1 109-208, R118D;E147R;N151S;E152T)
T1 sequence: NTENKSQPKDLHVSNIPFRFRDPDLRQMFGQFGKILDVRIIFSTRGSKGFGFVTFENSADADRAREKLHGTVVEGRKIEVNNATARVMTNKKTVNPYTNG
assay_comment: EMSA; HiTS-Eq, 1 nM pool, 10 min; buffer printed only for the single-RNA assays: 10 mM Tris pH 7.5, 150 mM NaCl, 3.4 mM EDTA, 0.001% NP-40, 30 C
test_settings: tags: His6 N-terminal (pET28a); label: 5' 32P
The full ranking holds about 16,000 sequences; the median of “ka relative to ugcaugu” is about 0.096, and the highest 2% start at about 0.35. For the sample, the highest values were picked, then their nearest neighbours and some sequences at random.
Task for the reader: assign each of the following binders its reported binding signal.

Give its binding signal value. Item: CCCCGCA (DNA:RNA) RNA: GGGAGACCGGAAUUCAGAUUGUCCCCCCGCAUUAAAUCCCGUCGUAGCCACCA DNA 1: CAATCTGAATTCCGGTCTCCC DNA 2: TGGTGGCTACGACGGGATT 0.118 KA relative to UGCAUGU

Give its binding signal value. Item: GCUCAUC (DNA:RNA) RNA: GGGAGACCGGAAUUCAGAUUGUCCGCUCAUCUUAAAUCCCGUCGUAGCCACCA DNA 1: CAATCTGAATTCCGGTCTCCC DNA 2: TGGTGGCTACGACGGGATT 0.06 KA relative to UGCAUGU

Give its binding signal value. Item: GGGGGGC (DNA:RNA) RNA: GGGAGACCGGAAUUCAGAUUGUCCGGGGGGCUUAAAUCCCGUCGUAGCCACCA DNA 1: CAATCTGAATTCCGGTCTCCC DNA 2: TGGTGGCTACGACGGGATT 0.0893 KA relative to UGCAUGU

Give its binding signal value. Item: CCCCGGC (DNA:RNA) RNA: GGGAGACCGGAAUUCAGAUUGUCCCCCCGGCUUAAAUCCCGUCGUAGCCACCA DNA 1: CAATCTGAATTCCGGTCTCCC DNA 2: TGGTGGCTACGACGGGATT 0.0573 KA relative to UGCAUGU

Give its binding signal value. Item: GCAUGUU (DNA:RNA) RNA: GGGAGACCGGAAUUCAGAUUGUCCGCAUGUUUUAAAUCCCGUCGUAGCCACCA DNA 1: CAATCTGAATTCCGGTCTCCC DNA 2: TGGTGGCTACGACGGGATT 0.776 KA relative to UGCAUGU

Give its binding signal value. Item: GGGCUUG (DNA:RNA) RNA: GGGAGACCGGAAUUCAGAUUGUCCGGGCUUGUUAAAUCCCGUCGUAGCCACCA DNA 1: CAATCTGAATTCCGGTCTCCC DNA 2: TGGTGGCTACGACGGGATT 0.371 KA relative to UGCAUGU

Give its binding signal value. Item: AGGCUUG (DNA:RNA) RNA: GGGAGACCGGAAUUCAGAUUGUCCAGGCUUGUUAAAUCCCGUCGUAGCCACCA DNA 1: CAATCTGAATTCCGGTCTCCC DNA 2: TGGTGGCTACGACGGGATT 0.388 KA relative to UGCAUGU

Give its binding signal value. Item: GUCGGGC (DNA:RNA) RNA: GGGAGACCGGAAUUCAGAUUGUCCGUCGGGCUUAAAUCCCGUCGUAGCCACCA DNA 1: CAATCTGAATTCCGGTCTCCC DNA 2: TGGTGGCTACGACGGGATT 0.0929 KA relative to UGCAUGU

Give its binding signal value. Item: ACCAGGC (DNA:RNA) RNA: GGGAGACCGGAAUUCAGAUUGUCCACCAGGCUUAAAUCCCGUCGUAGCCACCA DNA 1: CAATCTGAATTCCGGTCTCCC DNA 2: TGGTGGCTACGACGGGATT 0.0949 KA relative to UGCAUGU
